tested on: HEK-293T; test: Multiplex assay against HEK293T; format: toxicity, cell-based; conditions: human, 48 h, 1 µM, compound concentration 1 uM, replicate 1
Below, each entry is listed with its recorded Population Apoptotic (%).
Write the value in % as a bare number.

>  <compound>
CCCn1c(=O)c2[nH]c(C34CC5CC(CC3C5)C4)nc2n(CCC)c1=O [ROLOFYLLINE]

>  <system.name>
HEK-293T

>  <quantity.measured>
Population Apoptotic (%)

>  <reported.value>
50

$$$$

Requested field: Population Apoptotic (%). Item: `CC(=O)c1cc(-c2cc(C(=O)NC3CC3)ccc2C)c2ncccn12` 44

Now the same for CCc1cc2c(cc1CC)CC(NC[C@H](O)c1ccc(O)c3[nH]c(=O)ccc13)C2 [INDACATEROL] 43

Next up: `Cc1cc2c(cc1N1C(=O)c3cccc4c(CCCO)ccc(c34)C1=O)n(C)c(=O)n2C` 47

What about this compound? CCC(=O)O[C@]1(C(=O)SCF)[C@H](C)C[C@H]2[C@@H]3C[C@H](F)C4=CC(=O)C=C[C@]4(C)[C@@]3(F)[C@@H](O)C[C@@]21C [FLUTICASONE PROPIONATE] 50

Also check `CC(C)N1CCC(C)(C)c2cc(C#Cc3ccc(C(=O)O)cc3)ccc21` 43
